Known pIC50 of a selection of compounds
# Test system: SW480
# Experiment description: Anticancer activity against human SW480 cells assessed as inhibition of cell proliferation by MTT assay
# Format: functional, cell-based
# pIC50 is unitless: minus log10 of the molar concentration; print number only

Some solved entries appear below for comparison.
Record smiles | Reported
Cc1ccc(COC(=O)CC[C@@H](C)[C@H]2CC[C@H]3[C@@H]4[C@H](O)C[C@@H]5C[C@H](O)CC[C@]5(C)[C@H]4CC[C@]23C)cc1 | 4.37
C[C@H](CCC(=O)OCc1cccc(O)c1)[C@H]1CC[C@H]2[C@@H]3[C@H](O)C[C@@H]4C[C@H](O)CC[C@]4(C)[C@H]3CC[C@]12C | 4.37

**Query** Tell me measured pIC50 for C[C@H](CCC(=O)OCc1cc(O)cc(O)c1)[C@H]1CC[C@H]2[C@@H]3[C@H](O)C[C@@H]4C[C@H](O)CC[C@]4(C)[C@H]3CC[C@]12C please.
**Result** 4.16

**Query** Write down pIC50 measured for item Cc1ccc(COC(=O)CC[C@@H](C)[C@H]2CC[C@H]3[C@@H]4[C@H](O)C[C@@H]5C[C@H](O)CC[C@]5(C)[C@H]4C[C@H](O)[C@]23C)cc1
**Result** 4.63

**Query** Tell me its pIC50 given CC(=O)Nc1ccc(OC(=O)CC[C@@H](C)[C@H]2CC[C@H]3[C@@H]4[C@H](O)C[C@@H]5C[C@H](O)CC[C@]5(C)[C@H]4C[C@H](O)[C@]23C)cc1 as the entry.
**Result** 4.41
